The measurements presented in this section are drawn from patent US12540120B2.

# Tested on: Echinochloa crus-galli (ECHCG)
# EXPERIMENT_DESCRIPTION: B2 Post-Emergence Efficacy—Test 2
# Assay type: in vivo
# EXPERIMENTAL_CONTEXT: post-emergence application, 250 g/ha, evaluated after 13 days (Test 2)
Hi there, I'd appreciate the recorded percentage damage caused to the plant, five point scale, ECHCG for every entry that follows.

Value of percentage damage caused to the plant, five point scale, ECHCG reported for the compound COC(=O)c1ccc(CCc2c(Cl)ccc(F)c2-c2c(O)c(C)nn(C)c2=O)cc1 is 1 (1=0-19%)

Value of percentage damage caused to the plant, five point scale, ECHCG reported for the compound Cc1nc(-c2ccc(CCc3c(Cl)ccc(F)c3-c3c(O)c(C)nn(C)c3=O)cc2)cs1 is 5 (5=80-100%)

Value of percentage damage caused to the plant, five point scale, ECHCG reported for the compound Cc1nn(C)c(=O)c(-c2c(F)ccc(Cl)c2CCc2ccc(NC(=O)OC(C)(C)C)c(F)c2)c1O is 5 (5=80-100%)

Value of percentage damage caused to the plant, five point scale, ECHCG reported for the compound Cc1nn(C)c(=O)c(-c2c(F)ccc(Cl)c2/C=C/c2ccc(C#N)cc2)c1OC(=O)C(C)C is 3 (3=40-59%)

----------
# System: Echinochloa crus-galli (ECHCG)
# EXPERIMENT_DESCRIPTION: B6 Pre-Emergence Efficacy—Test 3
# Type: in vivo
# EXPERIMENTAL_CONTEXT: pre-emergence application, 250 g/ha, evaluated after 13 days (Test 3)
ASSAY_METRIC: percentage damage caused to the plant, five point scale, ECHCG

Value of percentage damage caused to the plant, five point scale, ECHCG reported for the compound Cc1nn(C)c(=O)c(-c2c(F)ccc(Cl)c2CCc2ccc(-c3ncco3)cc2)c1O is 5 (5=80-100%)

Value of percentage damage caused to the plant, five point scale, ECHCG reported for the compound Cc1nn(C)c(=O)c(-c2c(F)ccc(Cl)c2CCc2ccc(CSC(C)C)cc2)c1O is 5 (5=80-100%)

Value of percentage damage caused to the plant, five point scale, ECHCG reported for the compound Cc1nn(C)c(=O)c(-c2c(F)ccc(Cl)c2CCc2ccc(C(N)=O)cc2)c1O is 5 (5=80-100%)

Value of percentage damage caused to the plant, five point scale, ECHCG reported for the compound Cc1nn(C)c(=O)c(-c2c(F)ccc(Cl)c2CCc2cnn(-c3ccccc3)c2)c1O is 5 (5=80-100%)

Value of percentage damage caused to the plant, five point scale, ECHCG reported for the compound Cc1nn(C)c(=O)c(-c2c(F)ccc(Cl)c2CCc2ccc(C3CCC(C)O3)cc2)c1O (centres unmarked) is 0

----------
# Test system: Setaria faberi (SETFA)
# EXPERIMENT_DESCRIPTION: B2 Post-Emergence Efficacy—Test 2
# Type: in vivo
# EXPERIMENTAL_CONTEXT: post-emergence application, 250 g/ha, evaluated after 13 days (Test 2)
Hi there, I'd appreciate the recorded percentage damage caused to the plant, five point scale, SETFA for every entry that follows.

Value of percentage damage caused to the plant, five point scale, SETFA reported for the compound CC(=O)Nc1ccc(CCc2c(Cl)ccc(F)c2-c2c(O)c(C)nn(C)c2=O)cc1 is 5 (5=80-100%)

Value of percentage damage caused to the plant, five point scale, SETFA reported for the compound Cc1nn(C)c(=O)c(-c2c(F)ccc(Cl)c2CCc2ccc(C(=O)O)cc2)c1O is 0

Value of percentage damage caused to the plant, five point scale, SETFA reported for the compound Cc1nn(C)c(=O)c(-c2c(F)ccc(Cl)c2CCc2ccc(-c3cccs3)cc2)c1O is 5 (5=80-100%)

Value of percentage damage caused to the plant, five point scale, SETFA reported for the compound Cc1nn(C)c(=O)c(-c2c(F)ccc(Cl)c2/C=C/c2ccc(C#N)cc2)c1OC(=O)C(C)C is 1 (1=0-19%)

Value of percentage damage caused to the plant, five point scale, SETFA reported for the compound Cc1nn(C)c(=O)c(-c2c(F)ccc(Cl)c2CCc2ccc(OC(C)(C)C)cc2)c1OC(=O)C(C)C is 5 (5=80-100%)

Value of percentage damage caused to the plant, five point scale, SETFA reported for the compound Cc1nn(C)c(=O)c(-c2c(F)ccc(Cl)c2/C=C/c2ccc(O)cc2)c1O is 1 (1=0-19%)

Value of percentage damage caused to the plant, five point scale, SETFA reported for the compound Cc1nn(C)c(=O)c(-c2c(F)ccc(Cl)c2CCc2ccc(OC(C)(C)C)cc2)c1O is 4 (4=60-79%)

Value of percentage damage caused to the plant, five point scale, SETFA reported for the compound Cc1nn(C)c(=O)c(-c2c(F)ccc(Cl)c2CCc2ccc(N(C)C)cc2)c1O is 5 (5=80-100%)

----------
# Tested on: Echinochloa crus-galli (ECHCG)
# EXPERIMENT_DESCRIPTION: B2 Post-Emergence Efficacy—Test 2
# Type: in vivo
# EXPERIMENTAL_CONTEXT: post-emergence application, 250 g/ha, evaluated after 13 days (Test 2)
# Procedure: B2 Post-Emergence Efficacy—Test 2 Seeds of a variety of test species are sown in standard soil in pots:—Solanum nigrum (SOLNI), Amaranthus retoflexus (AMARE), Setaria faberi (SETFA), Echinochloa crus-galli (ECHCG), Ipomoea hederacea (IPOHE), Lolium perenne (LOLPE). […] After 13 days, the test is evaluated for the percentage damage caused to the plant. The biological activities are assessed on a five point scale (5=80-100%; 4=60-79%; 3=40-59%; 2=20-39%; 1=0-19%). […]
Hi there, I'd appreciate the recorded percentage damage caused to the plant, five point scale, ECHCG for every entry that follows.

Value of percentage damage caused to the plant, five point scale, ECHCG reported for the compound Cc1nn(C)c(=O)c(-c2c(F)ccc(Cl)c2CCc2ccc(C3CC3)cc2)c1OC(=O)C(C)C [Compound A-3.038] is 2 (2=20-39%)

Value of percentage damage caused to the plant, five point scale, ECHCG reported for the compound Cc1nn(C)c(=O)c(-c2c(F)ccc(Cl)c2CCc2ccc(C#N)cc2)c1O [Compound A-1.036] is 5 (5=80-100%)

Value of percentage damage caused to the plant, five point scale, ECHCG reported for the compound Cc1nn(C)c(=O)c(-c2c(F)ccc(Cl)c2/C=C/c2ccc(O)cc2)c1O [Compound A-2.037] is 2 (2=20-39%)

Value of percentage damage caused to the plant, five point scale, ECHCG reported for the compound Cc1nn(C)c(=O)c(-c2c(F)ccc(Cl)c2CCc2ccc(C(C)(C)C)cc2)c1O [Compound A-1.026] is 0

Value of percentage damage caused to the plant, five point scale, ECHCG reported for the compound Cc1nn(C)c(=O)c(-c2c(F)ccc(Cl)c2CCc2ccc(C(=O)O)cc2)c1O [Compound A-1.040] is 0

Value of percentage damage caused to the plant, five point scale, ECHCG reported for the compound Cc1nn(C)c(=O)c(-c2c(F)ccc(Cl)c2CCc2ccc(O)cc2)c1O [Compound A-1.037] is 3 (3=40-59%)

Value of percentage damage caused to the plant, five point scale, ECHCG reported for the compound CSc1ccc(CCc2c(Cl)ccc(F)c2-c2c(O)c(C)nn(C)c2=O)cc1 [Compound A-1.039] is 5 (5=80-100%)

Value of percentage damage caused to the plant, five point scale, ECHCG reported for the compound Cc1nn(C)c(=O)c(-c2c(F)ccc(Cl)c2/C=C/c2ccc(C3CC3)cc2)c1OC(=O)C(C)C [Compound A-4.038] is 1 (1=0-19%)

Value of percentage damage caused to the plant, five point scale, ECHCG reported for the compound Cc1nn(C)c(=O)c(-c2c(F)ccc(Cl)c2/C=C/c2cccc(C#N)c2)c1O [Compound A-2.030] is 0

Value of percentage damage caused to the plant, five point scale, ECHCG reported for the compound Cc1nn(C)c(=O)c(-c2c(F)ccc(Cl)c2/C=C/c2ccc(OC(C)(C)C)cc2)c1OC(=O)C(C)C [Compound A-4.035] is 0

Value of percentage damage caused to the plant, five point scale, ECHCG reported for the compound Cc1nn(C)c(=O)c(-c2c(F)ccc(Cl)c2CCc2ccc(-c3ccccc3)cc2)c1O [Compound A-1.027] is 5 (5=80-100%)

Value of percentage damage caused to the plant, five point scale, ECHCG reported for the compound Cc1nn(C)c(=O)c(-c2c(F)ccc(Cl)c2CCc2ccc(C#N)cc2)c1OC(=O)C(C)C [Compound A-3.036] is 4 (4=60-79%)

Value of percentage damage caused to the plant, five point scale, ECHCG reported for the compound CC(=O)Nc1cc(CCc2c(Cl)ccc(F)c2-c2c(O)c(C)nn(C)c2=O)ccn1 [Compound A-1.044] is 3 (3=40-59%)

Value of percentage damage caused to the plant, five point scale, ECHCG reported for the compound Cc1nn(C)c(=O)c(-c2c(F)ccc(Cl)c2CCc2ccc(S(=O)(=O)N(C)C)cc2)c1O [Compound A-1.025] is 5 (5=80-100%)

Value of percentage damage caused to the plant, five point scale, ECHCG reported for the compound Cc1nn(C)c(=O)c(-c2c(F)ccc(Cl)c2CCc2ccc(N(C)C)cc2)c1O [Compound A-1.033] is 4 (4=60-79%)

Value of percentage damage caused to the plant, five point scale, ECHCG reported for the compound Cc1cc(CCc2c(Cl)ccc(F)c2-c2c(O)c(C)nn(C)c2=O)ccc1N [Compound A-1.031] is 4 (4=60-79%)

Value of percentage damage caused to the plant, five point scale, ECHCG reported for the compound Cc1nn(C)c(=O)c(-c2c(F)ccc(Cl)c2CCc2ccc(OC(C)(C)C)cc2)c1O [Compound A-1.035] is 4 (4=60-79%)

Value of percentage damage caused to the plant, five point scale, ECHCG reported for the compound CNc1ccc(CCc2c(Cl)ccc(F)c2-c2c(O)c(C)nn(C)c2=O)cc1 [Compound A-1.034] is 1 (1=0-19%)

Value of percentage damage caused to the plant, five point scale, ECHCG reported for the compound Cc1nn(C)c(=O)c(-c2c(F)ccc(Cl)c2CCc2ccccc2C#N)c1O [Compound A-1.029] is 2 (2=20-39%)

Value of percentage damage caused to the plant, five point scale, ECHCG reported for the compound Cc1nn(C)c(=O)c(-c2c(F)ccc(Cl)c2CCc2ccc(-n3cncn3)cc2)c1O [Compound A-1.385] is 5 (5=80-100%)

Value of percentage damage caused to the plant, five point scale, ECHCG reported for the compound Cc1nn(C)c(=O)c(-c2c(F)ccc(Cl)c2CCc2ccc(OC(C)(C)C)cc2)c1OC(=O)C(C)C [Compound A-3.035] is 4 (4=60-79%)

Value of percentage damage caused to the plant, five point scale, ECHCG reported for the compound Cc1nn(C)c(=O)c(-c2c(F)ccc(Cl)c2/C=C/c2ccccc2C#N)c1OC(=O)C(C)C [Compound A-4.029] is 1 (1=0-19%)

Value of percentage damage caused to the plant, five point scale, ECHCG reported for the compound Cc1nn(C)c(=O)c(-c2c(F)ccc(Cl)c2CCc2ccc(-c3cccs3)cc2)c1O [Compound A-1.384] is 3 (3=40-59%)

Value of percentage damage caused to the plant, five point scale, ECHCG reported for the compound Cc1nn(C)c(=O)c(-c2c(F)ccc(Cl)c2CCc2cccc(C#N)c2)c1OC(=O)C(C)C [Compound A-3.030] is 2 (2=20-39%)

Value of percentage damage caused to the plant, five point scale, ECHCG reported for the compound CCN(C)C(=O)c1ccc(CCc2c(Cl)ccc(F)c2-c2c(OC(=O)C(C)C)c(C)nn(C)c2=O)cc1F [Compound A-3.028] is 5 (5=80-100%)

Value of percentage damage caused to the plant, five point scale, ECHCG reported for the compound Cc1nn(C)c(=O)c(-c2c(F)ccc(Cl)c2CCc2ccc(S(C)(=O)=O)cc2)c1O [Compound A-1.032] is 5 (5=80-100%)

Value of percentage damage caused to the plant, five point scale, ECHCG reported for the compound CCN(C)C(=O)c1ccc(CCc2c(Cl)ccc(F)c2-c2c(O)c(C)nn(C)c2=O)cc1F [Compound A-1.028] is 5 (5=80-100%)

Value of percentage damage caused to the plant, five point scale, ECHCG reported for the compound Cc1nn(C)c(=O)c(-c2c(F)ccc(Cl)c2/C=C/c2cccc(C#N)c2)c1OC(=O)C(C)C [Compound A-4.030] is 1 (1=0-19%)

Value of percentage damage caused to the plant, five point scale, ECHCG reported for the compound CC(=O)Nc1ccc(CCc2c(Cl)ccc(F)c2-c2c(O)c(C)nn(C)c2=O)cc1 [Compound A-1.024] is 4 (4=60-79%)

Value of percentage damage caused to the plant, five point scale, ECHCG reported for the compound Cc1nn(C)c(=O)c(-c2c(F)ccc(Cl)c2CCc2ccc(C3CC3)cc2)c1O [Compound A-1.038] is 5 (5=80-100%)

Value of percentage damage caused to the plant, five point scale, ECHCG reported for the compound Cc1nn(C)c(=O)c(-c2c(F)ccc(Cl)c2CCc2cccc(C#N)c2)c1O [Compound A-1.030] is 4 (4=60-79%)

Value of percentage damage caused to the plant, five point scale, ECHCG reported for the compound Cc1nn(C)c(=O)c(-c2c(F)ccc(Cl)c2CCc2ccccc2C#N)c1OC(=O)C(C)C [Compound A-3.029] is 1 (1=0-19%)
